A collection of binders and their measured OD405
molecular target: T1, purified recombinant human CD40 protein (human, UniProt P25942 21-193); experiment: ELISA on coated recombinant human CD40; chimeric antibody supernatant
T1 construct: also called recombinant CD40
T1 sequence (P25942 21-193 limits assumed): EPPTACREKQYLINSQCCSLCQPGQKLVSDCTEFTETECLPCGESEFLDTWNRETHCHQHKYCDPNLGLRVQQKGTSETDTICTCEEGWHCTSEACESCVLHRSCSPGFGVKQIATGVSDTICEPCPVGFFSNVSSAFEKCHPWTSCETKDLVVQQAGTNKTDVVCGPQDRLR

Binder: 195 rabbit-human chimeric anti-CD40 antibody (antibody, V domains shown, tested as cell culture supernatant) VH: QSVEESGGRLVTPGTPLTLTCTVSGFSLSSYAMNWVRQAPGKGLEYIGMIATGGKTFYAGWAEGRFTISKTSTTVDLHIASLTTEDTATYYCARGYVGDIYFGFWGPGTLVTVSS VL: AVLTQTPSPVSAGVGGTVTISCQSSKSVYYNTHLPWFQQKPGQPPKLLIYRASTLASGVPSRFKGSGSGTQFTLTISDVQCDDAATYYCAGGYANDVDNGFGGGTEVVVK
OD405, OD405: 1.84
//
Binder: 3B5 rabbit-human chimeric anti-CD40 antibody (antibody, V domains shown, tested as cell culture supernatant) VH: QSVEESGGRLITPGTPLTLTCTVSGFSLSTYAVSWVRQAPGKGLEWIGIIDSGGGTAYASWVKGRFTISKTSTTVDLKITSPTTEDTATYFCARGVTFFGLWGPGTLVTVSS VL: DIVMTQTPASVEAAVGGTVTIKCQASQSISNYLSWYQQKPGQPPKLLIYRASDLASGVPSRFKGSGSGTEFTLTISDLECADAATYYCQAYYYSGGGSYDYAFGGGTEVVVK
OD405, OD405: 1.48
//
Binder: 197 rabbit-human chimeric anti-CD40 antibody (antibody, V domains shown, tested as cell culture supernatant) VH: QEQLKESGGGLVTPGTALTLTCTASGSDISSYAMNWVRQAPGKGLEYIGVITSSGTIYYANWATGRFTISKASSTTVDLKTTRLTTEDTATYFCARGITGAVTTGLSLWGPGTLVTVSS VL: DVVMTQTPPSVSEPVGGTVTIKCQASQNIYNNLAWYQQTPGQPPKLLGYAASNLASGVSSRFSGSGYGTEFTLTISDLECADAATYYCLGGYYGNNVGNTFGGGTEVVVK
OD405, OD405: 2.01
